# target-of-assay: mICE (Mus musculus, UniProt P29452)
# Sequence (P29452 123-296 limits assumed): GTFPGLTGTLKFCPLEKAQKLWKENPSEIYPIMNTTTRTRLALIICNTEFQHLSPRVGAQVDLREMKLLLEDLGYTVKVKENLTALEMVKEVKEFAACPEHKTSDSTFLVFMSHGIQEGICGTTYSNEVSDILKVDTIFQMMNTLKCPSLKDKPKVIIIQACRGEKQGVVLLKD
# Sequence (P29452 315-402 limits assumed): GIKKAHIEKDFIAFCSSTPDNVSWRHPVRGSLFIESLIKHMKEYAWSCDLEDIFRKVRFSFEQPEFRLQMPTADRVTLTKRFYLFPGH
# experiment-description: Fluorescence enzyme assay, IC50 determination, ICE
# Type: biochemical
# condition-info: Table 3; method of Preparation 3A; read-out: mICE I50
readout: IC50 (µM)
Give the number; µM is assumed, so skip it.

Record excerpt, results attached:
sample-smiles | IC50 / µM
CC(C)C[C@H](NC(=O)COc1ccccc1OCc1ccccc1)C(=O)N[C@H](C=O)CC(=O)O | 2.4
CC(C)C[C@H](NC(=O)COc1ccnc2ccccc12)C(=O)N[C@H](C=O)CC(=O)O | 35.3
CC(C)C[C@H](NC(=O)COc1ccc(Oc2ccccc2)cc1)C(=O)N[C@H](C=O)CC(=O)O | 2.21
CC(C)C[C@H](NC(=O)COc1ccccc1-c1ccccc1)C(=O)N[C@H](C=O)CC(=O)O | 0.636
CC(C)C[C@H](NC(=O)CCOc1ccccc1)C(=O)N[C@H](C=O)CC(=O)O | 9.42
CC(C)C[C@H](NC(=O)COc1ccc(-c2ccccc2)cc1)C(=O)N[C@H](C=O)CC(=O)O | 1.9

Query: Can you look up the measured IC50 of CC(C)C[C@H](NC(=O)COc1cccc2cnccc12)C(=O)N[C@H](C=O)CC(=O)O for me?
Reply: 5.14

Query: And then CC(C)C[C@H](NC(=O)COc1cccc2cccnc12)C(=O)N[C@H](C=O)CC(=O)O , what is it?
Reply: 13.7

* * *

# target-of-assay: MCH-5 (Homo sapiens, UniProt Q14790)
# Sequence (Q14790 217-374 limits assumed, species assumed): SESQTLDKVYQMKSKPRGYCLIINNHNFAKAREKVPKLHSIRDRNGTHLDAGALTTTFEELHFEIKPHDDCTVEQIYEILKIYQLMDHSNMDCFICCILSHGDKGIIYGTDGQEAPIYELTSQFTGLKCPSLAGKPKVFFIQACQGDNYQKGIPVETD
# Sequence (Q14790 385-479 limits assumed, species assumed): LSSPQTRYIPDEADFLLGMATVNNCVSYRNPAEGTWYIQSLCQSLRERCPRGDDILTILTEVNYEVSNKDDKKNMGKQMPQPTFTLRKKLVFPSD
# experiment-description: Dissociation constant Ki and irreversible rate constant k3 for irreversible inhibitors, Mch5
# condition-info: continuous assay 60 min, reaction initiated by adding enzyme
readout: pKi
# log scale: pKi equals minus log10 of the concentration in mol/L

Query: State the recorded pKi for this entry: CC(C)C(NC(=O)COc1ccccc1-c1ccccc1)C(=O)NC(CC(=O)O)C(=O)CF (stereo not shown) [Example 56]
Reply: 7.07

* * *

Listed here are compounds together with their documented MCH-5 k3/Ki.
# target-of-assay: MCH-5 (Homo sapiens, UniProt Q14790)
# experiment-description: Dissociation constant Ki and irreversible rate constant k3 for irreversible inhibitors, Mch5
# Type: biochemical
# condition-info: continuous assay 60 min, reaction initiated by adding enzyme

Solved cases below.
compound | target-of-assay | MCH-5 k3/Ki
C[C@H](NC(=O)COc1ccccc1-c1ccccc1)C(=O)NC(CC(=O)O)C(=O)COc1c(F)c(F)cc(F)c1F (stereo partly shown) | MCH-5 (Homo sapiens, UniProt Q14790) | 4,370 M^−1s^−1
COC(=O)c1cc(OCC(=O)[C@H](CC(=O)O)NC(=O)[C@@H](NC(=O)COc2cccc3ccccc23)C(C)C)no1 | MCH-5 (Homo sapiens, UniProt Q14790) | 6,340 M^−1s^−1
CC(C)[C@H](NC(=O)COc1cccc2ccccc12)C(=O)N[C@@H](CC(=O)O)C(=O)COc1ccccc1 | MCH-5 (Homo sapiens, UniProt Q14790) | 4,260 M^−1s^−1
CC(C)[C@H](NC(=O)CCOc1cccc2ccccc12)C(=O)N[C@@H](CC(=O)O)C(=O)COc1cc(C(F)(F)F)n(-c2ccccc2)n1 | MCH-5 (Homo sapiens, UniProt Q14790) | 86 M⁻¹ s⁻¹

Query: Find the recorded MCH-5 k3/Ki belonging to CC(C)C[C@H](NC(=O)COc1ccccc1-c1ccccc1)C(=O)N[C@@H](CC(=O)O)C(=O)COP(=O)(c1ccccc1)c1ccccc1 and report it.
Reply: 15,200 M^−1s^−1

Query: Further, for CC(C)[C@H](NC(=O)COc1cccc2ccccc12)C(=O)N[C@@H](CC(=O)O)C(=O)COc1ccc(F)cc1 ?
Reply: 700 M⁻¹ s⁻¹

Query: Proceed to CC(C)C(NC(=O)COc1ccccc1-c1ccccc1)C(=O)NC(CC(=O)O)C(=O)CF (stereo not shown)
Reply: 12,800 M^−1s^−1

Reference source: patent US7157430B2
